- tested_system: BTK (Homo sapiens, UniProt Q06187)
- Sequence (Q06187 2-659): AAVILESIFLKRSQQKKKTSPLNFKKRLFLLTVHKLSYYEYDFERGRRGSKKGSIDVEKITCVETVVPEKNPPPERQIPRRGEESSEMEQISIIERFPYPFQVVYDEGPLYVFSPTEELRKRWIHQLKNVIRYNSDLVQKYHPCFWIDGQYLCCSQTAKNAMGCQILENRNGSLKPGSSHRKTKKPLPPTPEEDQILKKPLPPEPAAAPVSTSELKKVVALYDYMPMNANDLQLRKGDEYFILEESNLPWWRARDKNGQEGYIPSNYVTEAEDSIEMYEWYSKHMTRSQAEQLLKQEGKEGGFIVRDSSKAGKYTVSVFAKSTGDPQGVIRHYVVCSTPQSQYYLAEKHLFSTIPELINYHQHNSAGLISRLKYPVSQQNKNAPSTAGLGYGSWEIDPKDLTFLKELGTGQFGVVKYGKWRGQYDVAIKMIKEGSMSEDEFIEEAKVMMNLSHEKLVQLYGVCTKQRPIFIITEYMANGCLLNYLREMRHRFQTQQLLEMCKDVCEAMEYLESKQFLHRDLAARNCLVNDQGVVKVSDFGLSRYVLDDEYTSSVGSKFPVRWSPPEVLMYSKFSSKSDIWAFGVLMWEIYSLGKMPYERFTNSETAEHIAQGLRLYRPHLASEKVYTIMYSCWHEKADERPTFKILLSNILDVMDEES
endpoint: pIC50
Give bare numbers, as −log10 of the molar value.

-- ask # input compound: C1=C/COCc2cc(ccc2OCCN2CCCC2)Nc2nccc(n2)-c2cccc(c2)COC/1 ; wanted: its pIC50
-- reply 6.44

* * *

- tested_system: HCK (Homo sapiens, UniProt P08631)
- Sequence (P08631 2-526): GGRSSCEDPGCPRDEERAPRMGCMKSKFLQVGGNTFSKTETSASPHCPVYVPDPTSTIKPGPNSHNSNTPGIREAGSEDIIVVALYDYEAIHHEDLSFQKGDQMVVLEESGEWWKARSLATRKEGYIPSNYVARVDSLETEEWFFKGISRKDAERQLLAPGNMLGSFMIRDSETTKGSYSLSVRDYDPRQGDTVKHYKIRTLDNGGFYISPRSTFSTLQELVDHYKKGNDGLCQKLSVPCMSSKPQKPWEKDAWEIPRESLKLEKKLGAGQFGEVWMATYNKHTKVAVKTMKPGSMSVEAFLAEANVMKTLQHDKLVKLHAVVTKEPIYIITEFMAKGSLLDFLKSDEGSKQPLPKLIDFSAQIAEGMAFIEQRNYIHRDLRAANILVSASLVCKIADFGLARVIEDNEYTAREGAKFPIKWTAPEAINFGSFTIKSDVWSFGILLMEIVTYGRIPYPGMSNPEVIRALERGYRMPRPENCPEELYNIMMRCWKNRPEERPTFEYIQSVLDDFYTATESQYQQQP
endpoint: pIC50
Answers are plain numbers, as −log10 of the molar value.

-- ask # input molecule: C1=C/COCc2cc(ccc2OCCN2CCCC2)Nc2nccc(n2)-c2cccc(c2)COC/1 ; wanted: its pIC50
-- reply 6.28
